- test: chemical genetic growth profiling, strain panel (AID 1159580);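 also: tested at 20 µM; growth read once vehicle control cultures reached saturation at 30 °C; 1 = growth at the plate median or of vehicle wells; lower values mean less growth of the strain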
- conditions: S. cerevisiae deletion strains, growth OD, locus YDR069C, strain doa4, stronger effect = lower value
Hit rate of the full screen: of about 5,500 compounds, about 2,000 (36%) were called active. Inconclusive results (about 18%) are left out. Some of the results follow.

compound | normalized growth
COc1ccc2c(c1OC)C(=O)OC2[C@H]1c2c(cc3c(c2OC)OCO3)CCN1C (some centres undefined) | 1.02
CC[C@H](C)C(=O)O[C@H]1CCC=C2C=C[C@H](C)C(CCC3C[C@@H](O)CC(=O)O3)[C@H]21 (some centres undefined) | 1.01
Oc1ccc(Cl)cc1 | 0.992
O=C1OC2(c3ccc(O)cc3Oc3cc(O)ccc32)c2ccccc21 | 1.01
C=C1CCC2C(CC2(C)C)C(=C)CC/C1=N\O (centres undefined) | 0.995
O=C(O)c1ccccc1-c1c2cc(Br)c(=O)cc-2oc2[c]([Hg])c(O)c(Br)cc12 | 1.02
Cc1cccc(C)c1NC1=NCCCS1 | 1.02
COc1cc2c(cc1OC)C1Cc3ccc(OC)c(OC)c3CN1CC2 (centres undefined) | 0.972
COc1ccc(-c2coc3cc(OC)cc(OC)c3c2=O)cc1 | 1
CC(=O)OCC[C@H](C)CCC=C(C)C | 0.991
COc1cc(-c2coc3cc(OC)c(OC)c(OC)c3c2=O)cc(OC)c1OC | 1.01
COc1c2ccoc2c(OC)c2oc(=O)ccc12 | 0.982
C=C1C(=O)OC2CC1C(OC(C)=O)C/C(C)=C/CC/C(C)=C/CC[C@]2(C)O (some centres undefined) | 1.01
CC(=O)Oc1c(C)cccc1C(=O)O | 1.01
COc1ccc2c(c1)O[C@H]1c3ccc(OC)cc3OC[C@@H]21 | 1.01
C#CCCCCCCCCCCCC(O)CC(O)CO (centres undefined) | 0.994
COc1cc2occ(-c3ccccc3)c(=O)c2c(OC)c1C | 0.995
C=C1CCC(C2CC(=O)OC2=O)C(=O)CCC2C1CC2(C)C (centres undefined) | 0.988
CCCCOC(=O)c1ccccc1C(=O)OCCCC | 0.983
CC(=O)OC1CCC2(C)C(=CC=C3C2CCC2(C)C3CCC2C(C)/C=C/C(C)C(C)C)C1(C)C (centres undefined) | 1.02
CCN(CC)CCOC(=O)c1ccc(N)cc1 | 0.998
COc1cc(OC)c2c(=O)c(-c3ccccc3)coc2c1 | 1.02
CCCCCCOc1ccccc1C(N)=O | 0.989
CCCCN1CCCCC1C(=O)Nc1c(C)cccc1C (centres undefined) | 0.972
